From: paper PMC10663500

target: T1, human programmed cell death protein 1 (hPD-1) C93S (aa 24-167) (Homo sapiens, UniProt Q15116, C93S); test: SPR; Carterra LSA; Fab from the ammonium sulfate precipitate of the culture supernatant immobilised on a NiHC200M chip; hPD-1 (1-1024 nM) or mPD-1-Fc (4-1024 nM) as analyte, fourfold dilution series, no regeneration; HBS-EP pH 7.4, 25 °C; medians over the spots of a construct, KD = koff/kon; conditions: one partner purified
T1 construct: made as a fusion with a TEV site and human Fc; the Fc was cut off with TEV protease; source: Expi293F, purified (Protein A, TEV cleavage of Fc, SEC; monomer fractions); not shown: Fc (human), C-terminal, cleaved
T1 sequence (Q15116 24-167 C93S): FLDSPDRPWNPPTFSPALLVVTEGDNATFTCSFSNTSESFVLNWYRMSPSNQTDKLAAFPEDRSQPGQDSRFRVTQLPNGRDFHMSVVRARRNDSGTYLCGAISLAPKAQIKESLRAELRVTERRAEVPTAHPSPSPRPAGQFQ
The following binders are listed with their measured kon values.
Lab book: enter the figure in M⁻¹ s⁻¹, no units written.

Field: example entries. Status: answers known.
toripalimab Fab L.V99Y (Fab, V domains shown, as the heavy chain of Sm3; light chain of Sm3 with this change; numbers count from the chain's first residue; source: Brevibacillus, culture supernatant (ammonium sulfate precipitate); not shown: 6xHis, C-terminal, kept; 6xHN, C-terminal, kept) VH: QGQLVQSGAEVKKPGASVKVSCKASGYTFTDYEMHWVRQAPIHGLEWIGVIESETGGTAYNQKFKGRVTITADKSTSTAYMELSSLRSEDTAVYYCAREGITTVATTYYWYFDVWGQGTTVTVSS VL: DVVMTQSPLSLPVTLGQPASISCRSSQSIVHSNGNTYLEWYLQKPGQSPQLLIYKVSNRFSGVPDRFSGSGSGTDFTLKISRVEAEDVGVYYCFQGSHYPLTFGQGTKLEIK
30900
toripalimab Fab H.E52Y (Fab, V domains shown, heavy chain of Sm3 with this change; numbers count from the chain's first residue; as the light chain of Sm3; source: Brevibacillus, culture supernatant (ammonium sulfate precipitate); not shown: 6xHis, C-terminal, kept; 6xHN, C-terminal, kept) VH: QGQLVQSGAEVKKPGASVKVSCKASGYTFTDYEMHWVRQAPIHGLEWIGVIYSETGGTAYNQKFKGRVTITADKSTSTAYMELSSLRSEDTAVYYCAREGITTVATTYYWYFDVWGQGTTVTVSS VL: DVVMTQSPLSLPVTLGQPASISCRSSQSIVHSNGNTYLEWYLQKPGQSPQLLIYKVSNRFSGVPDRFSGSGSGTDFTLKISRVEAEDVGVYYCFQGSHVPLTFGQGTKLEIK
12700
toripalimab Fab L.V99H (Fab, V domains shown, as the heavy chain of Sm3; light chain of Sm3 with this change; numbers count from the chain's first residue; source: Brevibacillus, culture supernatant (ammonium sulfate precipitate); not shown: 6xHis, C-terminal, kept; 6xHN, C-terminal, kept) VH: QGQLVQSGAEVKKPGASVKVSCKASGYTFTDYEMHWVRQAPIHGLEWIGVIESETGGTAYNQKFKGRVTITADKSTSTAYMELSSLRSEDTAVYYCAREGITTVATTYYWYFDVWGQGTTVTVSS VL: DVVMTQSPLSLPVTLGQPASISCRSSQSIVHSNGNTYLEWYLQKPGQSPQLLIYKVSNRFSGVPDRFSGSGSGTDFTLKISRVEAEDVGVYYCFQGSHHPLTFGQGTKLEIK
10400
toripalimab Fab L.H31A (Fab, V domains shown, as the heavy chain of Sm3; light chain of Sm3 with this change; numbers count from the chain's first residue; source: Brevibacillus, culture supernatant (ammonium sulfate precipitate); not shown: 6xHis, C-terminal, kept; 6xHN, C-terminal, kept) VH: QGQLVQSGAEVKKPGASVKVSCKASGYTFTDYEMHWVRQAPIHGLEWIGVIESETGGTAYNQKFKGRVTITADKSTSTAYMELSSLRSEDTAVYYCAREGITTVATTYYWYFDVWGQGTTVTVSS VL: DVVMTQSPLSLPVTLGQPASISCRSSQSIVASNGNTYLEWYLQKPGQSPQLLIYKVSNRFSGVPDRFSGSGSGTDFTLKISRVEAEDVGVYYCFQGSHVPLTFGQGTKLEIK
10300
toripalimab Fab H.D31Y (Fab, V domains shown, heavy chain of Sm3 with this change; numbers count from the chain's first residue; as the light chain of Sm3; source: Brevibacillus, culture supernatant (ammonium sulfate precipitate); not shown: 6xHis, C-terminal, kept; 6xHN, C-terminal, kept) VH: QGQLVQSGAEVKKPGASVKVSCKASGYTFTYYEMHWVRQAPIHGLEWIGVIESETGGTAYNQKFKGRVTITADKSTSTAYMELSSLRSEDTAVYYCAREGITTVATTYYWYFDVWGQGTTVTVSS VL: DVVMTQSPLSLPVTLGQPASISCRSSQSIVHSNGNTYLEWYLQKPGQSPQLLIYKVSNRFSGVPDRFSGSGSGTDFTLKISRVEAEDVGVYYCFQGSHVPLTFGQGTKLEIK
28600
toripalimab Fab H.D31A (Fab, V domains shown, heavy chain of Sm3 with this change; numbers count from the chain's first residue; as the light chain of Sm3; source: Brevibacillus, culture supernatant (ammonium sulfate precipitate); not shown: 6xHis, C-terminal, kept; 6xHN, C-terminal, kept) VH: QGQLVQSGAEVKKPGASVKVSCKASGYTFTAYEMHWVRQAPIHGLEWIGVIESETGGTAYNQKFKGRVTITADKSTSTAYMELSSLRSEDTAVYYCAREGITTVATTYYWYFDVWGQGTTVTVSS VL: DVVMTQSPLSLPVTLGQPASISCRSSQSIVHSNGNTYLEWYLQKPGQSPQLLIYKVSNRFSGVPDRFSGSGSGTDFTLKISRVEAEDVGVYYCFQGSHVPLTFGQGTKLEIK
11600

Quick check: kon of toripalimab Fab L.S57A (Fab, V domains shown, as the heavy chain of Sm3; light chain of Sm3 with this change; numbers count from the chain's first residue; source: Brevibacillus, culture supernatant (ammonium sulfate precipitate); not shown: 6xHis, C-terminal, kept; 6xHN, C-terminal, kept) VH: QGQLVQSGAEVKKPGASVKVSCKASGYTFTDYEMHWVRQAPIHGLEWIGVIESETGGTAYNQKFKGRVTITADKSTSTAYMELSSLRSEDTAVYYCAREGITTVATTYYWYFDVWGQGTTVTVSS VL: DVVMTQSPLSLPVTLGQPASISCRSSQSIVHSNGNTYLEWYLQKPGQSPQLLIYKVANRFSGVPDRFSGSGSGTDFTLKISRVEAEDVGVYYCFQGSHVPLTFGQGTKLEIK ?
14300

What do we get for toripalimab Fab H.G57Y (Fab, V domains shown, heavy chain of Sm3 with this change; numbers count from the chain's first residue; as the light chain of Sm3; source: Brevibacillus, culture supernatant (ammonium sulfate precipitate); not shown: 6xHis, C-terminal, kept; 6xHN, C-terminal, kept) VH: QGQLVQSGAEVKKPGASVKVSCKASGYTFTDYEMHWVRQAPIHGLEWIGVIESETGYTAYNQKFKGRVTITADKSTSTAYMELSSLRSEDTAVYYCAREGITTVATTYYWYFDVWGQGTTVTVSS VL: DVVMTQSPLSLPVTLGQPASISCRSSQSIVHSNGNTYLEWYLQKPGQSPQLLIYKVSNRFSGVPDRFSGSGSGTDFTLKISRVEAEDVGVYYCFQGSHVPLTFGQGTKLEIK ?
41100

Another: toripalimab Fab L.Y37A (Fab, V domains shown, as the heavy chain of Sm3; light chain of Sm3 with this change; numbers count from the chain's first residue; source: Brevibacillus, culture supernatant (ammonium sulfate precipitate); not shown: 6xHis, C-terminal, kept; 6xHN, C-terminal, kept) VH: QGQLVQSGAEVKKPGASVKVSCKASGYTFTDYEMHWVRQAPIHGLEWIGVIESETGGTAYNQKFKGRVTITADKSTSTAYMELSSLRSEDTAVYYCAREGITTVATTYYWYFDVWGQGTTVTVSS VL: DVVMTQSPLSLPVTLGQPASISCRSSQSIVHSNGNTALEWYLQKPGQSPQLLIYKVSNRFSGVPDRFSGSGSGTDFTLKISRVEAEDVGVYYCFQGSHVPLTFGQGTKLEIK
18300

What about toripalimab Fab L.S26A (Fab, V domains shown, as the heavy chain of Sm3; light chain of Sm3 with this change; numbers count from the chain's first residue; source: Brevibacillus, culture supernatant (ammonium sulfate precipitate); not shown: 6xHis, C-terminal, kept; 6xHN, C-terminal, kept) VH: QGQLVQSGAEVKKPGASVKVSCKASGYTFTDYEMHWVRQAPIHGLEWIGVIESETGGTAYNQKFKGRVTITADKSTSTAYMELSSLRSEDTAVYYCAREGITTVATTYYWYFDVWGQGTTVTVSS VL: DVVMTQSPLSLPVTLGQPASISCRSAQSIVHSNGNTYLEWYLQKPGQSPQLLIYKVSNRFSGVPDRFSGSGSGTDFTLKISRVEAEDVGVYYCFQGSHVPLTFGQGTKLEIK ?
24300
